Test system: NCI-H292 lung cancer cells
protocol_summary: FDA drug screening, complete media vs cholesterol-free media without statin (TABLE 1)
Assay type: cell-based, human
condition_info: NCI-H292 cells in cholesterol-free media without statin
Structures can show the parent of a compound that is named as a salt.
property: Cholesterol-free
Please state the value as a number alone, without comment.

Query: State the recorded Cholesterol-free for this entry: CCOC(=O)[N-]c1cn(N2CCOCC2)n[o+]1
Response: 1.343

Query: State the recorded Cholesterol-free for this entry: O=C[C@H](O)[C@@H](O)[C@H](O)CO (racemic)
Response: 1.5

Query: State the recorded Cholesterol-free for this entry: O=[N+]([O-])C(Br)(CO)CO
Response: 1.461

Query: State the recorded Cholesterol-free for this entry: CCC1(c2ccccc2)NC(=O)N(C)C1=O (stereo not shown)
Response: 1.604

Query: State the recorded Cholesterol-free for this entry: CC(=O)OCC(=O)[C@@]1(O)CC[C@H]2[C@@H]3CCC4=CC(=O)CC[C@]4(C)[C@H]3C(=O)C[C@@]21C [Cortisone acetate]
Response: 2.332

Query: State the recorded Cholesterol-free for this entry: Cc1ccccc1N1C(=O)c2cc(S(N)(=O)=O)c(Cl)cc2NC1C (stereo not shown)
Response: 1.469

Query: State the recorded Cholesterol-free for this entry: CCCCc1oc2ccccc2c1C(=O)c1cc(I)c(OCCN(CC)CC)c(I)c1 [Amiodarone (hydrochloride)]
Response: 1.555

Query: State the recorded Cholesterol-free for this entry: C[C@H](CCC(=O)O)[C@H]1CC[C@H]2[C@@H]3CC[C@@H]4C[C@H](O)CC[C@]4(C)[C@H]3C[C@H](O)[C@]12C
Response: 1.683

Query: State the recorded Cholesterol-free for this entry: CN(C)CCCN1c2ccccc2CCc2ccc(Cl)cc21 [Clomipramine (hydrochloride)]
Response: 1.47

Query: State the recorded Cholesterol-free for this entry: CCCCOc1cc(C(=O)NCCN(CC)CC)c2ccccc2n1 [Dibucaine (hydrochloride)]
Response: 1.433
